The reported numbers originate from paper PMC3226453.

target: Ec-FtsZ (Escherichia coli); construct: N-terminal His tag, from strain MG1655; assay: enzyme-coupled (PK/LDH, NADH) GTPase assay
Sequence (P0A9A6 whole entry): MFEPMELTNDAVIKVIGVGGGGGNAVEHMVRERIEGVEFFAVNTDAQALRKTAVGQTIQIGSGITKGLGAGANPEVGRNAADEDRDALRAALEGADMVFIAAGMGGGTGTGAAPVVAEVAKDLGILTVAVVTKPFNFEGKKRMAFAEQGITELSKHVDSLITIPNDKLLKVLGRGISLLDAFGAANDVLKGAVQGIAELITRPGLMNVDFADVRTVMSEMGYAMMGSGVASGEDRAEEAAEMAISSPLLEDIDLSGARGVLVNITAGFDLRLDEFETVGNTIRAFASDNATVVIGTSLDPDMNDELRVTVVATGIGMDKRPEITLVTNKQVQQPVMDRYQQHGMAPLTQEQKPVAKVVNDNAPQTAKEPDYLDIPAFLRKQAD
Value type: IC50 (µM)
Dear colleague, please return just the value in µM, with no unit written.

[in] Given COc1ccc2cc3[n+](cc2c1OC)CCc1cc2c(cc1-3)OCO2 [berberine] , state its recorded IC50.
[out] 240

* * *

molecular target: (UniProt Q5GS34)
Sequence (Q5GS34 1-396 limits assumed): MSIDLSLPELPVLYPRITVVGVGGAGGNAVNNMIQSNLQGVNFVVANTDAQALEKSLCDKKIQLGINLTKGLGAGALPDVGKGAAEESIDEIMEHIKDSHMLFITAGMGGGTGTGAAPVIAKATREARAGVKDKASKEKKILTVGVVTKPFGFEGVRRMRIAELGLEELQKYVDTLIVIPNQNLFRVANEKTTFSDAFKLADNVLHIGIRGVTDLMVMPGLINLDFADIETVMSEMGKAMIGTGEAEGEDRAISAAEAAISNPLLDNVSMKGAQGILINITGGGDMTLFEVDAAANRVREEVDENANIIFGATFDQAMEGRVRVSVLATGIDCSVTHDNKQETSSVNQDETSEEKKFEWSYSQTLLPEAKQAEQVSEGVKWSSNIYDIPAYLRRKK
Value type: IC50 (µM)
Dear colleague, please return just the value in µM, with no unit written.

[in] I'm curious: which IC50 was measured for COc1ccc2cc3[n+](cc2c1OC)CCc1cc2c(cc1-3)OCO2 [berberine] tested on (UniProt Q5GS34)?
[out] 320
